All figures here come from patent US20080003127A1.

# Method Summary: Boiling point
# Type: physicochemical
# Condition Notes: Table A
Item-by-item account of Boiling Point (° C.)
Parameter: Boiling Point (° C.)

1. O=S(=O)(F)F [SO2F2, sulfuryl fluoride] ... −55 °C
2. FC(F)(F)C(F)(F)F ... −78 °C
3. FCC(F)(F)F [HFC-134a, 1,1,1,2-tetrafluoroethane] ... −26 °C
4. FC(F)(F)/C=C/Cl [trans-HFCO-1233zd, trans-1,1,1-trifluoro-3-chloro-propene] ... +19 °C
5. C=C(F)C(F)(F)F [HFO-1234yf, 1,1,1,2-tetrafluoropropene] ... −30 °C
